Values compiled from paper PMC9299485.

- Study system: MIF (Homo sapiens)
- Construct: His tag (C); made in house; host or cells: Escherichia coli BL21 (DE3), pET-20b(+)
- Sequence (P14174 2-115 limits assumed): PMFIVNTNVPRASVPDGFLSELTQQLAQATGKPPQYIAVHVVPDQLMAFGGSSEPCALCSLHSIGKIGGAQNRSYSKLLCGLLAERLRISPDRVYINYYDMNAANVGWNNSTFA
- Experimental protocol: MIF tautomerase activity inhibition (4-HPP substrate, UV 306 nm)
- Format: biochemical
- Assay setup: Table S2 dose-inhibition curves; read-out: IC50 MIF tautomerase
- Procedure: 2. Preparation of recombinant MIF and MIF2. […] The concentration of protein was determined using the Bradford assay. The detailed procedure to produce recombinant human MIF2 was reported in our previous publications.[7] […] The concentration of protein was determined using the Bradford a ssay. […]
Readout type: IC50 (µM)
Please give a number only; it is taken to be in µM.

Tell me the measured IC50 of Cc1nc(Cl)cc(-c2ccc(C(=O)O)cc2)n1 [Compound 3a] , please.
72

====

- Study system: MIF (Homo sapiens)
- Construct: His tag (C); made in house; host or cells: Escherichia coli BL21 (DE3), pET-20b(+)
- Experimental protocol: MIF tautomerase activity inhibition (4-HPP substrate, UV 306 nm)
- Assay type: biochemical
- Assay setup: Table S1; 10 min; read-out: IC50 (µM) MIF
Readout type: IC50 (µM)
Only the number, expressed in µM, is required.

Given `CC(C)c1nc(I)cc(-c2ccc(C(=O)O)cc2)n1` , state its recorded IC50.
112

Any idea what its IC50 is? The molecule is `O=C(O)c1ccc(-c2cc(Cl)ncn2)cc1`
17

// IC50 lookup, key: `O=[N+]([O-])c1ccc(-c2cc(Cl)ncn2)cc1`
1.4

Which IC50 is listed for `Cc1nc(Cl)cc(-c2ccc(C(=O)O)cc2)n1` ?
95

====

- Study system: MIF2 (Homo sapiens)
- Construct: made in house; host or cells: E. coli BL21(DE3), pET20b(+)
- Experimental protocol: MIF2 tautomerase activity inhibition (PP substrate, UV 300 nm)
- Format: biochemical
- Assay setup: Table 1; tautomerase activity; mean±SD, n=3; read-out: IC50 MIF2
pIC50: −log10 of the molar value.
Assign pIC50 to each entry below.

Report pIC50 for Ic1cc(-c2ccccc2)ncn1 [Compound 1, 4‐iodo‐6‐phenylpyrimidine, reference compound] please.
< 3.60

Which measured pIC50 value corresponds to `O=[N+]([O-])c1ccc(-c2cc(I)ncn2)cc1` ?
< 3.60

Query (molecule): `O=C(O)c1ccc(-c2cc(I)ncn2)cc1` ; field requested: pIC50
3.90

What does the record list as pIC50 for `O=C(O)c1ccc(-c2cc(I)nc(N3CCOCC3)n2)cc1` ?
< 3.60

====

- Study system: MIF2 (Homo sapiens)
- Construct: made in house; host or cells: E. coli BL21(DE3), pET20b(+)
- Experimental protocol: MIF2 tautomerase activity inhibition (PP substrate, UV 300 nm)
- Assay type: biochemical
- Assay setup: Table 1; tautomerase activity; mean±SD, n=3; read-out: IC50 MIF2
pIC50: −log10 of the molar value.
Readout type: pIC50

Data request, read-out pIC50, for `Cc1nc(I)cc(-c2ccc(C(=O)O)cc2)n1`
< 3.60

Any idea what pIC50 was measured for `Cc1c(I)ncnc1-c1ccc(C(=O)O)cc1` ?
< 3.60

Dear colleague, I am looking for the recorded pIC50 of the following compound: `O=C(O)c1ccc(-c2cc(I)nc(-c3ccccc3)n2)cc1`
< 3.60

====

Can you tell me IC50 for the items I'm about to list?
- Study system: MIF (Homo sapiens, UniProt P14174)
- Construct: His tag (C); made in house; host or cells: Escherichia coli BL21 (DE3), pET-20b(+)
- Experimental protocol: MIF tautomerase activity inhibition (4-HPP substrate, UV 306 nm)
- Format: biochemical
- Assay setup: Table 1; tautomerase activity; mean±SD, n=3; read-out: IC50 MIF
Enter your answer as a number in µM; do not include the unit.

Could you share which IC50 value was measured for `Cc1c(I)ncnc1-c1ccc(C(=O)O)cc1` ?
56

# IC50 lookup, item `O=[N+]([O-])c1ccc(-c2cc(I)ncn2)cc1`
0.63

Record request: IC50 value, item `O=C(O)c1ccc(-c2cc(I)nc(N3CCOCC3)n2)cc1`
15

Field request: IC50 | item: `O=C(O)c1ccc(-c2cc(I)ncn2)cc1`
5

I am curious: what IC50 value has been reported for Ic1cc(-c2ccccc2)ncn1 [Compound 1, 4‐iodo‐6‐phenylpyrimidine, reference compound] ?
4

GET /values?readout=IC50&item= `O=C(O)c1ccc(-c2cc(I)nc(-c3ccccc3)n2)cc1`
59

====

- Study system: MIF (Homo sapiens, UniProt P14174)
- Construct: His tag (C); made in house; host or cells: Escherichia coli BL21 (DE3), pET-20b(+)
- Experimental protocol: MIF tautomerase activity inhibition (4-HPP substrate, UV 306 nm)
- Type: biochemical
- Assay setup: approximate; read-out: IC50 on MIF
- Experimental: 2. Preparation of recombinant MIF and MIF2. […] The concentration of protein was determined using the Bradford assay. The detailed procedure to produce recombinant human MIF2 was reported in our previous publications.[7] […] The concentration of protein was determined using the Bradford a ssay. […]
pIC50: −log10 of the molar value.
Readout type: pIC50

Return reported pIC50; argument: `O=C(NCCNc1ccc([N+](=O)[O-])c2nonc12)c1ccc(-c2cc(I)ncn2)cc1`
~6.70

Look up pIC50: `O=C(CCCC[C@@H]1SC[C@@H]2NC(=O)N[C@@H]21)NCCNC(=O)c1ccc(-c2cc(I)ncn2)cc1`
~6.70

====

- Study system: MIF2 (Homo sapiens, UniProt P30046)
- Construct: made in house; host or cells: E. coli BL21(DE3), pET20b(+)
- Sequence (P30046 2-118 limits assumed): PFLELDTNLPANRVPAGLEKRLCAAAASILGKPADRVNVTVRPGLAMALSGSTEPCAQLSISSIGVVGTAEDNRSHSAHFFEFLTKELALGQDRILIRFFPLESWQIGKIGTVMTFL
- Experimental protocol: MIF2 tautomerase activity inhibition (PP substrate, UV 300 nm)
- Type: biochemical
- Assay setup: Table 2; 10 min pre-incubation; ±SD, n=3; read-out: IC50 MIF2
Please go through the items and note down their pIC50.
Scale for pIC50: -log10 of concentration given in mol/L; no unit attached.

So what does the record say about pIC50 for O=C(NCCNc1ccc([N+](=O)[O-])c2nonc12)c1ccc(-c2cc(I)ncn2)cc1 [Compound 8] ?
4.70

What does the record list as pIC50 for O=C(CCCC[C@@H]1SC[C@@H]2NC(=O)N[C@@H]21)NCCNC(=O)c1ccc(-c2cc(I)ncn2)cc1 [Compound 9] ?
4.11
